tested on: Hepatitis C virus; assay: Antiviral activity against Hepatitis C virus subtype 1b; format: functional, organism-based, Hepacivirus hominis; conditions: genotype 1b
List of EC50 values.

| COMPOUND | EC50 |
| --- | --- |
| COc1ccc(-n2c(C)nc3c(NCCN4CCOCC4)nc(I)nc32)cc1OC | 10 µM |
| COc1ccc(-n2c(OC)nc3c(NCCN4CCOCC4)nc(C)nc32)cc1OC | > 44 µM |
| COc1ccc(-n2c(C3CC=CCC3)nc3c(NCCN4CCOCC4)nc(C)nc32)cc1OC (centres undefined) | > 44 µM |
| COc1ccc(-n2c(C(C)C)nc3c(NCCN4CCOCC4)nc(C)nc32)cc1OC | > 44 µM |
| COc1ccc(-n2c(-c3ccc(O)cc3)nc3c(NCCN4CCOCC4)nc(C)nc32)cc1OC | > 44 µM |
| COc1nc(NCCN2CCOCC2)c2nc(C)n(-c3ccc(OC)c(OC)c3)c2n1 | 6 µM |
| COc1ccc(-n2c(-c3ccc(OCc4ccccc4)cc3)nc3c(NCCN4CCOCC4)nc(C)nc32)cc1OC | > 44 µM |
| COc1ccc(-n2c(C)nc3c(NCCN4CCOCC4)nc(N)nc32)cc1OC | 40 µM |
| COc1ccc(-n2c(-c3ccc(C#N)cc3)nc3c(NCCN4CCOCC4)nc(C)nc32)cc1OC | > 44 µM |

====

Quick reference: inhibition of the listed items.
species: Homo sapiens; experiment: Inhibition of PI4K3 alpha (unknown origin) at 10 uM by ADP-Glo assay relative to control

| COMPOUND | inhibition |
| --- | --- |
| COc1ccc(-n2c(-c3ccc(CO)cc3)nc3c(NCCN4CCOCC4)nc(C)nc32)cc1OC | < 50% |
| COc1ccc(-n2c(C)nc3c(NCCN4CCOCC4)nc(-c4cccc(C(=O)N(C)C)c4)nc32)cc1OC | < 50% |
| COc1ccc(-n2c(-c3ccsc3)nc3c(NCCN4CCOCC4)nc(C)nc32)cc1OC | < 50% |
| COc1ccc(-n2c(OC)nc3c(NCCN4CCOCC4)nc(C)nc32)cc1OC | < 50% |
| COc1ccc(-n2c(C)nc3c(NCCN4CCOCC4)nc(N)nc32)cc1OC | < 50% |
| COc1ccc(-n2c(C)nc3c(NCCN4CCOCC4)nc(-c4ccc(C#N)cc4)nc32)cc1OC | < 50% |
| COc1ccc(-n2c(CO)nc3c(NCCN4CCOCC4)nc(C)nc32)cc1OC | < 50% |
| COc1ccc(-n2c(C)nc3c(NCCN4CCOCC4)nc(-c4cccc(Cl)c4)nc32)cc1OC | < 50% |
| COc1nc(NCCN2CCOCC2)c2nc(C)n(-c3ccc(OC)c(OC)c3)c2n1 | < 50% |
| COc1ccc(-n2c(C)nc3c(NCCN4CCOCC4)ncnc32)cc1OC | < 50% |
| COc1ccc(-n2c(C3CC=CCC3)nc3c(NCCN4CCOCC4)nc(C)nc32)cc1OC (centres undefined) | < 50% |
| C#Cc1nc(NCCN2CCOCC2)c2nc(C)n(-c3ccc(OC)c(OC)c3)c2n1 | < 50% |
| COc1ccc(-n2c(C)nc3c(NCCN4CCOCC4)nc(C#N)nc32)cc1OC | < 50% |
| COc1ccc(-n2c(C)nc3c(NCCN4CCOCC4)nc(-c4ccsc4)nc32)cc1OC | < 50% |
| COc1ccc(-n2c(C)nc3c(NCCN4CCOCC4)nc(-c4ccc(F)cc4)nc32)cc1OC | < 50% |
| COc1ccc(-n2c(C)nc3c(NCCN4CCOCC4)nc(I)nc32)cc1OC | < 50% |
| COc1ccc(-n2c(C)nc3c(NCCN4CCOCC4)nc(C#Cc4ccccc4)nc32)cc1OC | < 50% |
| COc1ccc(-n2c(-c3ccc(OCc4ccccc4)cc3)nc3c(NCCN4CCOCC4)nc(C)nc32)cc1OC | < 50% |
| COc1ccc(-n2c(-c3ccc(F)cc3)nc3c(NCCN4CCOCC4)nc(C)nc32)cc1OC | < 50% |
